Target: Factor D (Homo sapiens, UniProt P00746)
Construct: prepared from pooled human plasma; from tissue; host or cells: pooled human plasma
Sequence (P00746 26-253): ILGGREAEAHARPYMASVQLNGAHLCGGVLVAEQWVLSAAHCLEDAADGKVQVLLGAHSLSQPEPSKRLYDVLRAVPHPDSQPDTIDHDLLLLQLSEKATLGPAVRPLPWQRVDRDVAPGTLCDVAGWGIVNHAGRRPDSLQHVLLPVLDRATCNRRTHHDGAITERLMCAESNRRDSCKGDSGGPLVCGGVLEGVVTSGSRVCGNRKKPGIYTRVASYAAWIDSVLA
Experiment: Factor D assay by inhibition of fluid phase Factor B activation
Format: biochemical
Details: Table X; μM concentration at which protease was inhibited 50%; read-out: IC50 D
Description: Highly purified C3, C4, Factor D, Factor B, and C1s were prepared from pooled human plasma. Factors B and C4 were radiolabeled by periodate oxidation of sialic acid residues, followed by reduction with tritiated sodium borohydride. […] The specific radioactivity of ^3 H factor B was about 10,000 CPM/μg and that of ^3 H-C4 was 5,000 CPM/μg. […] B=radioactivity (CPM) of uncleaved factor B Bb=radioactivity (CPM) of fragment Bb Ba=radioactivity (CPM) of fragment Ba […]
Ends that are not written are not given here.
READOUT LABEL: IC50 (µM)
The reply should contain only the number, in µM.

Examples with answers:
>  <SEQUENCE>
IDGRIVEGSRVTFKANRPFLVFI [Peptide 18]

>  <UNITS OF MEASURE>
µM

>  <QUANTITATIVE READOUT>
43

$$$$
>  <SEQUENCE>
LQRALEILRVTFKANRPFLVFI [Peptide 14]

>  <UNITS OF MEASURE>
µM

>  <QUANTITATIVE READOUT>
8

$$$$

Field: next sequence
Give a short answer stating reported IC50 for AGRSLNPNRVTFKANRPFLVFI [Peptide 7] .
145

Recorded values, source patent US5157019A.
